Record set: pIC50 | Cyclin-dependent kinase 2 (Homo sapiens) | literature, multiple sources.
pIC50: −log10 of the molar value.

{"compound": "O=c1cc(-c2ccc(O)cc2)oc2c(O)c(O)c(O)c(O)c12", "operator": "<", "pIC50": 3.82}
{"compound": "CC1(O)C(C2C(=O)Nc3ccc(Br)cc32)=Nc2ccccc21 (stereo not given)", "operator": "=", "pIC50": 5.52}
{"compound": "Cc1cc(Cl)cc2c1NC(=O)C2C=Nc1ccc(S(N)(=O)=O)cc1 (stereo not given)", "operator": "<", "pIC50": 5.00}
{"compound": "COCc1cc(/N=N/c2cccc(S(N)(=O)=O)c2)c2ccccc2c1N", "operator": "=", "pIC50": 4.28}
{"compound": "COC(=O)N[C@@H]1CCC[C@H](C(=O)Nc2cc(-c3ccc(F)cc3OC)c(F)cn2)C1", "operator": "=", "pIC50": 6.25}
{"compound": "COc1cccc(COc2ccc3sc4c(c3c2)NC[C@@H](C)NC4=O)c1", "operator": "=", "pIC50": 7.19}
{"compound": "COc1ccc2sc3c(c2c1)CCCNC3=O", "operator": "=", "pIC50": 6.44}
{"compound": "CN(C)c1ccc2c(c1)C(C=Nc1ccc(S(N)(=O)=O)cc1)C(=O)N2 (stereo not given)", "operator": "=", "pIC50": 6.51}
{"compound": "COCCOc1ccc2sc3c(c2c1)NC[C@@H](C)NC3=O", "operator": "=", "pIC50": 7.09}
{"compound": "COc1cc(F)ccc1-c1cc(NC(=O)[C@H]2CCC[C@@H](NC(=O)C3(C#N)CC3)C2)ncc1F", "operator": "=", "pIC50": 6.12}

* * *

Assembled from different publications: log10(IC50) for Cyclin-dependent kinase 2 (Homo sapiens).
propertyName: log10(IC50) (log10 of the value in nM)

{"compound": "COc1cc(F)ccc1-c1cc(NC(=O)[C@H]2CCC[C@@H](NC(=O)CC#N)C2)ncc1F", "log10(IC50)": 3.03}
{"compound": "O=C1Nc2ccc(Br)cc2/C1=N/NC(=O)c1cc2cc(Br)ccc2o1", "log10(IC50)": 1.58}
{"compound": "COc1cc(F)ccc1-c1cc(NC(=O)C2CCCC(NC(C)=O)C2)ncc1F (stereo not drawn)", "log10(IC50)": 3.33}
{"compound": "CNS(=O)(=O)c1ccc(N=CC2C(=O)Nc3ccc4ncsc4c32)cc1 (stereo not drawn)", "log10(IC50)": 0.75}
{"compound": "Cc1c(Br)c(=O)n(C2CCCC2)c2nc(Nc3ccc(N4CCNCC4)cc3)ncc12", "log10(IC50)": 2.64}
{"compound": "CN(C)CCN(C)S(=O)(=O)c1ccc2c(c1)C(c1[nH]c3ccccc3c1N=O)C(=O)N2 (stereo not drawn)", "log10(IC50)": 1.60}

* * *

IC50 values for Cyclin-dependent kinase 2 (Homo sapiens, UniProt P24941), compiled from several publications.
propertyName: IC50

{"testSmiles": "CC(=O)N[C@@H]1CCC[C@H](C(=O)Nc2cc(-c3ccc(F)cc3OC(C)C)c(F)cn2)C1", "propertyName": "IC50", "dataValue": "991 nM"}
{"testSmiles": "CN1CCC(c2c(O)cc(O)c3c(O)c(Cc4ccc([N+](=O)[O-])cc4)oc23)CC1", "propertyName": "IC50", "dataValue": "310 nM"}
{"testSmiles": "COc1ccc2sc3c(c2c1)NC[C@@H](CN)NC3=O", "propertyName": "IC50", "dataValue": "146 nM"}
{"testSmiles": "Nc1ccc2c(c1Cl)C(=O)c1ccc(N)c(Cl)c1C2=O", "propertyName": "IC50", "dataValue": "> 150000 nM"}
{"testSmiles": "Nc1cc([N+](=O)[O-])ccc1Nc1ccc(O)cc1", "propertyName": "IC50", "dataValue": "> 150000 nM"}
{"testSmiles": "CN(C)C1CCN(S(=O)(=O)c2ccc3c(c2)C(=C2Nc4ccccc4C2=O)C(=O)N3)CC1", "propertyName": "IC50", "dataValue": "20 nM"}
{"testSmiles": "CC(C)c1nn(-c2c(Cl)cc(Cl)cc2Cl)c2nc(Cc3ccc(OC(C)(C)C(=O)O)cc3)[nH]c(=O)c12", "propertyName": "IC50", "dataValue": "20 nM"}
{"testSmiles": "CN(C)CCN(C)S(=O)(=O)c1ccc2c(c1)C(=C1Nc3ccccc3C1=O)C(=O)N2", "propertyName": "IC50", "dataValue": "10 nM"}
{"testSmiles": "CC(C)c1n[nH]c2c(NCc3ccc(-c4ccccn4)cc3)nc(NCC(C)(C)O)nc12", "propertyName": "IC50", "dataValue": "9 nM"}
{"testSmiles": "O=C(O)CCNS(=O)(=O)c1ccc2c(c1)C(=C1Nc3ccccc3C1=O)C(=O)N2", "propertyName": "IC50", "dataValue": "1500 nM"}
{"testSmiles": "CN(C[C@H](O)[C@@H](O)[C@H](O)[C@H](O)CO)S(=O)(=O)c1ccc2c(c1)C(=C1Nc3ccccc3C1=O)C(=O)N2", "propertyName": "IC50", "dataValue": "450 nM"}
{"testSmiles": "COc1ccc2c(c1)/C(=N/NC(=O)c1cc3cc(Br)ccc3o1)C(=O)N2", "propertyName": "IC50", "dataValue": "53 nM"}
{"testSmiles": "CNC(=O)N[C@@H]1CCC[C@H](C(=O)Nc2cc(-c3ccc(F)cc3OC)c(F)cn2)C1", "propertyName": "IC50", "dataValue": "688 nM"}
{"testSmiles": "CCN1CCN(Cc2ccc(Nc3ncc4c(n3)-c3c(nn(CC)c3C(C)C)CC4)nc2)CC1", "propertyName": "IC50", "dataValue": "896 nM"}
{"testSmiles": "Nc1n[nH]c(N)c1/N=N/c1ccncc1", "propertyName": "IC50", "dataValue": "549 nM"}
{"testSmiles": "COc1ccc2sc3c(c2c1)NC[C@@H](CNCc1ccccc1)NC3=O", "propertyName": "IC50", "dataValue": "2700 nM"}
{"testSmiles": "Oc1ccc(/N=C/c2c(O)ccc3ccccc23)cc1", "propertyName": "IC50", "dataValue": "> 150000 nM"}

* * *

pIC50: −log10 of the molar value.
Collected literature values of pIC50 measured for Cyclin-dependent kinase 2 (Homo sapiens, UniProt P24941).
Given measured pIC50, output yes if it is greater than or equal to 7 and no if not.

{"testSmiles": "COc1ccc2sc3c(c2c1)NC[C@@H](CO)NC3=O", "label": "yes"}
{"testSmiles": "CC(C)n1ncc2c1-c1nc(Nc3ccc(N4CCNCC4)cn3)ncc1CC2", "label": "no"}
{"testSmiles": "COc1cc(F)ccc1-c1cc(NC(=O)[C@H]2CCC[C@@H](NC(=O)C(F)(F)F)C2)ncc1F", "label": "no"}
{"testSmiles": "COc1cc(F)c(F)cc1-c1cc(NC(=O)[C@H]2CCC[C@@H](NC(=O)CO)C2)ncc1F", "label": "no"}
{"testSmiles": "COc1cc(F)c(F)cc1-c1cc(NC(=O)[C@H]2CCC[C@@H](NC(=O)C3(C#N)CC3)C2)ncc1F", "label": "no"}
